attributeMeasured: melting point

Illustrative cases are given below, each with its answer.
# input Find the recorded melting point belonging to Cl.O[C@@H]1C[C@H](CN2CCC(c3ccccc3)CC2)CCc2c(-c3ccccc3)cccc21 (racemic) and report it.
# output 245 to 246 °C

# input Find the recorded melting point belonging to Cc1cccc2c1CC[C@@H](CN1CCC(c3cccc(F)c3)CC1)C[C@H]2O.Cl (racemic) and report it.
# output 241 to 243 °C

# input Find the recorded melting point belonging to Cl.c1ccc(C2CCN(CC3CCc4ccccc4CC3)CC2)cc1 and report it.
# output > 250 °C

# input Find the recorded melting point belonging to Cc1ccccc1C1CCN(C[C@@H]2CCc3ccccc3[C@H](O)C2)CC1.Cl (racemic) and report it.
# output > 250 °C

# input Find the recorded melting point belonging to C=CCO[C@@H]1C[C@H](CN2CCC(c3ccccc3)CC2)CCc2ccccc21.Cl (racemic) and report it.
# output 126 to 128 °C

Others:
# input Find the recorded melting point belonging to Cc1ccccc1C1CCN(CC2CCc3ccccc3CC2)CC1.Cl and report it.
# output 245 °C

# input Find the recorded melting point belonging to Cl.c1ccc(C2CCN(C3Cc4ccccc4C3)CC2)cc1 and report it.
# output > 250 °C
